The reported numbers originate from patent US20230096452A1.

assayed.system: T1, human claudin 18.2 (hCLDN18.2) (human)
T1 construct: also called CLDN18 splice variant 2; HEK293-hCLDN18.2
assay.method.text: flow cytometry on HEK293-hCLDN18.2 cells; 5 ug/mL; not heat treated
endpoint.label: FACS binding signal (read-out unnamed)
Just the number, please, no unit attached.

binder | reported.value
h5M9v9 humanized antibody (h5M9 VHv3 / h5M9 VLv3) (antibody, V domains shown, Human IgG1 (G1m17) heavy and human kappa light constant regions) VH: QVQLKESGPGLVAPSETLSITCTVSGFSLTTYGVQWVRQPPGKGLEWLGAIWAGGNTNYNSALMSRLTISKDNSKSQVSLKMSSVTAADTAIYYCAKGGYGNAMDYWGQGTLVTVSS VL: DIVMTQSPSSLAVSLGERVTMNCKSSQSLLNSGNQKNYLTWYQQKPGQPPKLLIYWASTRESGVPDRFTGSGSGTDFTLTISSVQAEDLAVYYCQNDYFFPFTFGSGTKLEIK | 589
5-M9 human-mouse chimeric monoclonal antibody (antibody, human IgG1, V domains shown, Mouse V regions fused to human IgG1 (G1m17) heavy chain constant region and human kappa light chain constant region; also called 5-M9-A; Chi 5-M9) VH: QVQLKESGPVLVAPSQSLSITCTVSGFSLTTYGVQWVRQPPGKGLEWLGAIWAGGNTNYNSALMSRLSISKDNSKSQVFLKMNSLQTDDTAIYYCAKGGYGNAMDYWGQGTSVTVAS VL: DIVMTQSPSSLTVTAGERVTMSCKSSQSLLNSGNQKNYLTWYQQKSGQPPKLLIYWASTRESGVPDRFTGSGSGTDFTLTISSVQAEDLAVYYCQNDYFFPFTFGSGTKLEIK | 638

Consider now this further binder.
Query: Look at this binder and give its reported FACS binding signal (read-out unnamed). 175D10 human-mouse chimeric positive control antibody (antibody, V domains shown, Self-made, expressed in CHOS cells, Protein A purified; also called Benchmark) VH: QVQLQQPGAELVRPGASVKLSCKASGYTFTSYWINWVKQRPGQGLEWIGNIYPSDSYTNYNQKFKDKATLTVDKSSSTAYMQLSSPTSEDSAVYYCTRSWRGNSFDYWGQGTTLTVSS VL: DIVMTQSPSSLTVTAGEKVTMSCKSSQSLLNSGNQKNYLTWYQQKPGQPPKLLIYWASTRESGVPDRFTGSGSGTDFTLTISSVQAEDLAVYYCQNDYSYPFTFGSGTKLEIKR
Reply: 567
